The measurements presented in this section are drawn from patent US7511123B2.

Test system: PO-12
Experiment: Solid phase binding of Set 2 peptides to PO-12
Set-up: species or system mouse; key: +++; ΦΦΦ strong effect; +, Φ weak effect
Details: Set 2 biotinylated peptides 24 micromoles/L
observable: PO-12 SPB

INSERT INTO measurements (substance, reportedresult) VALUES
  ('SGSG PYSLLPGAQPCCAA [Peptide 24]', '+++'),
  ('SGSG QPCCAALPGTMRPL [Peptide 26]', '+++'),
  ('SGSG TPAQPYSLLPGAQP [Peptide 23]', '+++'),
  ('SGSG LPGAQPCCAALPGT [Peptide 25]', '+++'),
  ('SGSG GAPPTPAQPYSLLP [Peptide 22]', '+++');
